Test system: Pseudomonas aeruginosa
Method: Antibacterial activity against Pseudomonas aeruginosa 19-5 assessed as inhibition of bacterial growth measured after 18 to 20 hrs by broth microdilution method
Assay type: functional
Condition Info: time 18-20 hrs
Listed here are compounds together with their documented MIC.
Measure Name: MIC (µg/mL)

{"Smiles String": "CSSC1(c2ccc(-c3ncc(C(=O)N[C@@H](CCN)C(=O)N(C)[C@@H]4C(=O)N[C@@H](C)C(=O)N[C@H](C(=O)NCC#N)Cc5ccc(OCCN)c(c5)-c5cc4ccc5OCCN)c(C)n3)cc2)CCC1.O=C(O)C(F)(F)F.O=C(O)C(F)(F)F.O=C(O)C(F)(F)F.O=C(O)C(F)(F)F", "Measure Name": "MIC", "Numeric Readout": 2}
{"Smiles String": "Cc1nc(-c2ccc(CSSC(C)(C)C)cc2)ccc1C(=O)N[C@@H](CCN)C(=O)N(C)[C@@H]1C(=O)N[C@@H](C)C(=O)N[C@H](C(=O)NCC#N)Cc2ccc(OCCN)c(c2)-c2cc1ccc2OCCN.O=C(O)C(F)(F)F.O=C(O)C(F)(F)F.O=C(O)C(F)(F)F.O=C(O)C(F)(F)F", "Measure Name": "MIC", "Numeric Readout": 8}
{"Smiles String": "CSC(=O)CNC(=O)[C@@H]1Cc2ccc(OCCN)c(c2)-c2cc(ccc2OCCN)[C@H](N(C)C(=O)[C@H](CCN)NC(=O)c2cnc(-c3ccc(C(C)(C)C)cc3)nc2C)C(=O)N[C@@H](C)C(=O)N1.O=C(O)C(F)(F)F.O=C(O)C(F)(F)F.O=C(O)C(F)(F)F.O=C(O)C(F)(F)F", "Measure Name": "MIC", "Numeric Readout": 64}
{"Smiles String": "Cc1nc(-c2ccc([C@@H](C)SSC(C)(C)C)cc2)ncc1C(=O)N[C@@H](CCN)C(=O)N(C)[C@@H]1C(=O)N[C@@H](C)C(=O)N[C@H](C(=O)NCC#N)Cc2ccc(OCCN)c(c2)-c2cc1ccc2OCCN.O=C(O)C(F)(F)F.O=C(O)C(F)(F)F.O=C(O)C(F)(F)F.O=C(O)C(F)(F)F", "Measure Name": "MIC", "Numeric Readout": 4}

###

Test system: Klebsiella pneumoniae
Method: Antibacterial activity against Klebsiella pneumoniae 15-5 assessed as inhibition of bacterial growth measured after 18 to 20 hrs by broth microdilution method
Format: functional
Condition Info: time 18-20 hrs
Label Condition met when MIC is strictly below 0.2 µg/mL; at or above that, label Condition not met.

{"Smiles String": "Cc1nc(-c2ccc([C@H](C)SSC(C)(C)C)cc2)ncc1C(=O)N[C@@H](CCN)C(=O)N(C)[C@@H]1C(=O)N[C@@H](C)C(=O)N[C@H](C(=O)NCC#N)Cc2ccc(OCCN)c(c2)-c2cc1ccc2OCCN.O=C(O)C(F)(F)F.O=C(O)C(F)(F)F.O=C(O)C(F)(F)F.O=C(O)C(F)(F)F", "Category": "Condition met"}
{"Smiles String": "Cc1nc(-c2ccc(C(C)(C)C)cc2)ncc1C(=O)N[C@@H](CCN)C(=O)N(C)[C@@H]1C(=O)N[C@@H](C)C(=O)N[C@H](C(=O)NCP(=O)(O)O)Cc2ccc(OCCN)c(c2)-c2cc1ccc2OCCN.Cl.Cl.Cl.Cl", "Category": "Condition not met"}
{"Smiles String": "CCCSSc1ccc(-c2ncc(C(=O)N[C@@H](CCN)C(=O)N(C)[C@@H]3C(=O)N[C@@H](C)C(=O)N[C@H](C(=O)NCC#N)Cc4ccc(OCCN)c(c4)-c4cc3ccc4OCCN)c(C)n2)cc1.O=C(O)C(F)(F)F.O=C(O)C(F)(F)F.O=C(O)C(F)(F)F.O=C(O)C(F)(F)F", "Category": "Condition met"}
{"Smiles String": "CCCCCSSc1ccc(-c2ncc(C(=O)N[C@@H](CCN)C(=O)N(C)[C@@H]3C(=O)N[C@@H](C)C(=O)N[C@H](C(=O)NCC#N)Cc4ccc(OCCN)c(c4)-c4cc3ccc4OCCN)c(C)n2)cc1.O=C(O)C(F)(F)F.O=C(O)C(F)(F)F.O=C(O)C(F)(F)F.O=C(O)C(F)(F)F", "Category": "Condition not met"}
{"Smiles String": "Cc1nc(-c2ccc(C(C)(C)C)cc2)ncc1C(=O)N[C@@H](CCN)C(=O)N(C)[C@@H]1C(=O)N[C@@H](C)C(=O)N[C@H](C(=O)NCC(=O)O)Cc2ccc(OCCN)c(c2)-c2cc1ccc2OCCN.Cl.Cl.Cl.Cl", "Category": "Condition not met"}
{"Smiles String": "Cc1nc(-c2ccc(C(C)(C)C)cc2)ncc1C(=O)N[C@@H](CCN)C(=O)N(C)[C@H]1Cc2ccc(OCCN)c(c2)-c2cc(ccc2OCCN)C[C@@H](C(=O)NCC#N)NC(=O)[C@H](C)NC1=O.Cl.Cl.Cl.Cl", "Category": "Condition not met"}
{"Smiles String": "Cc1nc(-c2ccc(C(C)(C)SSC(C)(C)C)cc2)ncc1C(=O)N[C@@H](CCN)C(=O)N(C)[C@@H]1C(=O)N[C@@H](C)C(=O)N[C@H](C(=O)NCC#N)Cc2ccc(OCCN)c(c2)-c2cc1ccc2OCCN.O=C(O)C(F)(F)F.O=C(O)C(F)(F)F.O=C(O)C(F)(F)F.O=C(O)C(F)(F)F", "Category": "Condition not met"}
{"Smiles String": "Cc1nc(-c2ccc(C(C)(C)C)cc2)ncc1NC(=O)N[C@@H](CCN)C(=O)N(C)[C@@H]1C(=O)N[C@@H](C)C(=O)N[C@H](C(=O)NCC#N)Cc2ccc(OCCN)c(c2)-c2cc1ccc2OCCN.O=C(O)C(F)(F)F.O=C(O)C(F)(F)F.O=C(O)C(F)(F)F.O=C(O)C(F)(F)F", "Category": "Condition not met"}
